- experiment-summary: 14C assay with IPTG-induced recombinant E. coli cells: 14CO2 captured from [14C]-carboxyl-labeled dicamba
- experimental-setup: induced recombinant E. coli cells, [14C]-carboxyl-labeled dicamba, 14CO2 capture
reported-endpoint: Dicamba Decarboxylase Activity

INSERT INTO results (molecule, result) VALUES
  ('23 (protein, listed as Aplysina aerophoba) MAIDIDARSQPGLETARRAMSRRDFLGGAAAFGITAAATTALPASTAAGEEEDLFLLGLEEHFATAELRRLNGIQFPQGTPRFDINDVGAGRIADMDAAGIDIQVLSALTPGAQNLPGAEGVAYARRLNSWVAHEVIPAYPGRFRAFATLPLSEPQAAADELEYAVRELGFLGCMTYGAVDGKFLDHADFVPVLARAETLDVPIYIHPNWASPQVMDTYYNGLGNEWVSRVLSGAGYGWHQEVALQCLRMIASGVFDRFPRLQIIVGHMGEGLPFFYWRFGDDLARITADTLEKPVQQYFHDNFWITTSAFFRDELLRLVLSVMGEDRVMFAVDYPFVSNKVGADWFRAVDLPRNVKEKIAHKNAERLLKIGPF', 'Low');
